Reference source for all entries: PubChem BioAssay AID1527

# Test system: VIM-2 metallo-beta-lactamase (Pseudomonas aeruginosa)
# assay_overview: inhibition of VIM-2 nitrocefin hydrolysis – biochemical, epi-absorbance readout, Pseudomonas aeruginosa enzyme, primary screen (AID 1527);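 further: red hydrolysis product quenches plate fluorescence so inhibitors raise well fluorescence; 0% = enzyme with DMSO and 100% = DMSO without enzyme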
# condition_set: purified VIM-2, nitrocefin hydrolysis, epi-absorbance fluorescence; at 5.6 µM; stronger effect = higher value
Hit rate of the full screen: of about 290,000 compounds, about 2,600 (0.9%) were called active. What follows is part of a selection rich in actives, with near analogues and random picks from the rest.
Catalogue of inhibition readings, one per entry.

# molecule, inhibition [%]
rows = [
    ("COc1ccc(CCNC(=O)c2ccc3c(c2)NC(=O)C(N2CCOCC2)S3)cc1OC (stereo not given)", 0.07),
    ("CCN1CCN(CCNC(=O)c2ccc3c(c2)NC(=O)/C(=C\\c2ccc(OC)c(OC)c2)S3)CC1", 23.2),
    ("CC(C)n1c(COc2ccccc2)nc2ccccc21", -2.15),
    ("CCN1CCN(CCNC(=O)c2ccc(/C=C3/Sc4ccccc4N(Cc4cccc(C)c4)C3=O)cc2)CC1", -2.77),
    ("COc1ccc(C(=O)C2CCCN(C(=O)c3cc(C)on3)C2)cc1F (stereo not given)", -2.54),
]

----------
# System: VIM-2 metallo-beta-lactamase (Pseudomonas aeruginosa)
# assay_overview: inhibition of VIM-2 nitrocefin hydrolysis – biochemical, epi-absorbance readout, Pseudomonas aeruginosa enzyme, primary screen (AID 1527)
# condition_set: purified VIM-2, nitrocefin hydrolysis, epi-absorbance fluorescence; at 5.6 µM
About 2,600 (0.9%) of roughly 290,000 compounds were called active.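 Rule for the calls: active = inhibition above the mean of all tested compounds plus 3 SD, cutoff set per screening run (cut at about 7.5% in these data); inactive = the rest.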 The full list was thinned out, with actives kept by preference.
Labels: true = active, false = inactive

# sample_smiles, class_label
data = [
    ("CCCc1cc(=O)oc2c(C)c(OCC(=O)N3CCC(C(=O)O)CC3)ccc12", "false"),
    ("O=c1[nH]c(-c2ccccc2)c(-c2ccccc2)[nH]1", "true"),
    ("CCCc1ccc(OCCNC(=O)c2ccco2)cc1", "true"),
    ("N#Cc1c2c(c(-c3ccccc3)[nH]c1=O)CCCC2", "false"),
    ("O=C1Nc2ccccc2/C1=C/c1ccnc2ccccc12", "true"),
    ("CCc1cc(=O)oc2cc(C)cc(OCC(=O)N3CCC[C@@H]3C(=O)O)c12", "true"),
]

----------
# Tested on: VIM-2 metallo-beta-lactamase (Pseudomonas aeruginosa)
# assay_overview: inhibition of VIM-2 nitrocefin hydrolysis – biochemical, epi-absorbance readout, Pseudomonas aeruginosa enzyme, primary screen (AID 1527);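 further: red hydrolysis product quenches plate fluorescence so inhibitors raise well fluorescence; 0% = enzyme with DMSO and 100% = DMSO without enzyme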
# condition_set: purified VIM-2, nitrocefin hydrolysis, epi-absorbance fluorescence; at 5.6 µM
Screen size: about 290,000 compounds; about 2,600 (0.9%) were called active.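 Rule for the calls: active = inhibition above the mean of all tested compounds plus 3 SD, cutoff set per screening run (cut at about 7.5% in these data); inactive = the rest.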 This excerpt belongs to a sample that is enriched for actives.
Labels: active, inactive

# compound, class_label
records = [
    ("O=C(NC(=S)Nc1ccccc1C(=O)O)c1ccc(-c2ccc(Br)cc2)o1", "active"),
    ("CCOC(=O)C1(Cc2ccccc2C)CCCN(C(=O)CCc2c(C)noc2C)C1 (stereo unspecified)", "inactive"),
    ("COc1ccc(C)cc1S(=O)(=O)N(CC(=O)Nc1cccc([N+](=O)[O-])c1)c1ccc(C)cc1", "inactive"),
    ("COC(=O)c1ccccc1NC(=S)NC(=O)c1ccccc1F", "inactive"),
    ("N#Cc1cc([N+](=O)[O-])ccc1NCC1CCCO1 (stereo unspecified)", "inactive"),
    ("C/C(=N\\Nc1ncc(Cl)cc1Cl)c1cccs1", "inactive"),
]

----------
# Test system: VIM-2 metallo-beta-lactamase (Pseudomonas aeruginosa)
# assay_overview: inhibition of VIM-2 nitrocefin hydrolysis – biochemical, epi-absorbance readout, Pseudomonas aeruginosa enzyme, primary screen (AID 1527);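 further: red hydrolysis product quenches plate fluorescence so inhibitors raise well fluorescence; 0% = enzyme with DMSO and 100% = DMSO without enzyme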
# condition_set: purified VIM-2, nitrocefin hydrolysis, epi-absorbance fluorescence; at 5.6 µM; stronger effect = higher value
The campaign covered roughly 290,000 compounds. About 2,600 (0.9%) were called active. Only a selection was taken, and actives are over-represented in it overall.
test_readout: inhibition (%)

# compound, reported
measured = [
    ("O=C(O)CC/C(=C\\c1cc2c(cc1Br)OCO2)c1nc2ccccc2s1", 7.92),
    ("O=C(Nc1nc2ccccc2s1)c1ccc2c(c1)OCO2", -3.05),
    ("CN(C)CCCn1c(=O)n(Cc2ccccc2)c(=O)c2c3c(sc21)CCCCC3", -0.19),
    ("CC1CCN(C2=NC(=O)/C(=C/c3ccc(O)cc3)S2)CC1", 1.8),
    ("COc1ccccc1CNC(=O)C1CCN(C(=O)[C@@H]2Cc3ccccc3CN2)CC1", -1),
    ("O=C1CC(C(F)(F)C(F)(F)C(F)(F)C(F)(F)F)=Nc2ccccc2N1", -4.82),
    ("CCOc1cc(/C=C2\\SC(N3CCCCC3)=NC2=O)ccc1O", 14.9),
    ("O=S(=O)(NC1CCCCC1N1CCCCC1)c1ccc(Cl)cc1 (stereo unspecified)", -1.53),
    ("O=C(O)CS/C(=C\\c1ccc(F)cc1)c1nc2ccccc2s1", 2.23),
    ("O=C1N=C(N2CCc3ccccc3C2)S/C1=C\\c1ccc(O)cc1", 0.39),
    ("CCc1cc(=O)oc2cc(C)cc(OC(C)C(=O)O)c12 (stereo unspecified)", -2.35),
]

----------
# System: VIM-2 metallo-beta-lactamase (Pseudomonas aeruginosa)
# assay_overview: inhibition of VIM-2 nitrocefin hydrolysis – biochemical, epi-absorbance readout, Pseudomonas aeruginosa enzyme, primary screen (AID 1527);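 further: red hydrolysis product quenches plate fluorescence so inhibitors raise well fluorescence; 0% = enzyme with DMSO and 100% = DMSO without enzyme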
# condition_set: purified VIM-2, nitrocefin hydrolysis, epi-absorbance fluorescence; at 5.6 µM
Screen size: about 290,000 compounds; about 2,600 (0.9%) were called active.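 The calls were made as follows: active = inhibition above the mean of all tested compounds plus 3 SD, cutoff set per screening run (cut at about 7.5% in these data); inactive = the rest.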 For the sample, actives were picked, then their nearest neighbours and some compounds at random.
Labels: y = active, n = inactive

# molecule, target, class_label
measured = [
    ("COc1ccc(N(CC(=O)Nc2cccc3ccccc23)S(C)(=O)=O)c(OC)c1", "VIM-2 metallo-beta-lactamase (Pseudomonas aeruginosa)", "n"),
    ("Cc1cc(C)c2nc(SCCC#N)nc(C)c2c1", "VIM-2 metallo-beta-lactamase (Pseudomonas aeruginosa)", "n"),
    ("Oc1ccc(-c2cccc(-c3ccc(O)cc3)c2)cc1", "VIM-2 metallo-beta-lactamase (Pseudomonas aeruginosa)", "n"),
    ("O=C(NCCCc1ccccc1)C(=O)NCC1OCCN1S(=O)(=O)c1ccccc1 (stereo not drawn)", "VIM-2 metallo-beta-lactamase (Pseudomonas aeruginosa)", "n"),
    ("Cc1cc(Cl)c2oc(C(=O)NC(C)c3ccncn3)c(C)c2c1 (stereo not drawn)", "VIM-2 metallo-beta-lactamase (Pseudomonas aeruginosa)", "n"),
    ("COc1ccc(-c2ccc(CNCCCN3CCOCC3)o2)cc1Cl", "VIM-2 metallo-beta-lactamase (Pseudomonas aeruginosa)", "n"),
    ("CC(C)(C)C(=O)CN1C2=NCCN2c2ccccc21", "VIM-2 metallo-beta-lactamase (Pseudomonas aeruginosa)", "n"),
    ("Cc1cccn2c(=O)c3cc(C(=O)NC4CCCCC4)sc3nc12", "VIM-2 metallo-beta-lactamase (Pseudomonas aeruginosa)", "y"),
    ("COc1cccc(C(=O)OCc2cc(=O)oc3c(C)c(C)ccc23)c1OC", "VIM-2 metallo-beta-lactamase (Pseudomonas aeruginosa)", "y"),
    ("C=CCn1c(SCc2ccc(C(=O)NCCO)cc2)nc2ccccc2c1=O", "VIM-2 metallo-beta-lactamase (Pseudomonas aeruginosa)", "y"),
    ("COCCCNC(=S)N(CCN(C)C)Cc1cc2cc3c(cc2[nH]c1=O)OCCO3", "VIM-2 metallo-beta-lactamase (Pseudomonas aeruginosa)", "n"),
    ("O=C(Nn1c(SCc2ccc([N+](=O)[O-])cc2)nc2ccccc2c1=O)c1ccc(F)cc1", "VIM-2 metallo-beta-lactamase (Pseudomonas aeruginosa)", "n"),
    ("Cc1cc(C)c2nc(-c3ccco3)cc(C(=O)O)c2c1", "VIM-2 metallo-beta-lactamase (Pseudomonas aeruginosa)", "n"),
    ("CCn1ccnc1CNC(=O)CC1C(=O)NCCN1Cc1ccc(F)cc1Cl (stereo not drawn)", "VIM-2 metallo-beta-lactamase (Pseudomonas aeruginosa)", "n"),
    ("CCc1cc(C(N)=O)c(NC(=O)c2ccc(OC)cc2)s1", "VIM-2 metallo-beta-lactamase (Pseudomonas aeruginosa)", "n"),
    ("CC(=O)Nc1ccccc1Sc1ccc2c3c(cccc13)C(=O)N(c1ccc(C)cc1)C2=O", "VIM-2 metallo-beta-lactamase (Pseudomonas aeruginosa)", "n"),
    ("Cc1cc(NC(=O)/C=C/C(=O)N(c2ccccc2C)C(C(=O)NC2CCCC2)c2ccc(F)cc2)no1 (stereo not drawn)", "VIM-2 metallo-beta-lactamase (Pseudomonas aeruginosa)", "n"),
    ("Cc1ccccc1-n1nc(C)c2cc(C(=O)NC3CC3)sc21", "VIM-2 metallo-beta-lactamase (Pseudomonas aeruginosa)", "n"),
    ("CCc1cc(C(=O)c2ccc(OC)cc2)c(NC(=O)CN2CCN(C)CC2)s1", "VIM-2 metallo-beta-lactamase (Pseudomonas aeruginosa)", "y"),
    ("COc1ccc(Cc2nnc(NC(=O)Cc3cccs3)s2)cc1", "VIM-2 metallo-beta-lactamase (Pseudomonas aeruginosa)", "n"),
    ("COC(=O)Cc1cc(=O)oc2c(C)c(O)ccc12", "VIM-2 metallo-beta-lactamase (Pseudomonas aeruginosa)", "n"),
    ("Cc1cc(S(=O)(=O)NCc2ccccn2)c(Cl)cc1Cl", "VIM-2 metallo-beta-lactamase (Pseudomonas aeruginosa)", "n"),
    ("COc1ccc(Br)cc1CN1CCN(C(=O)c2cccc(OC)c2OC)CC1", "VIM-2 metallo-beta-lactamase (Pseudomonas aeruginosa)", "n"),
]
